Test system: Alopecurus myosuroides (ALOMY)
PROTOCOL: Glasshouse herbicide test, pre- and post-emergence, percentage damage
Type: in vivo
TEST_CONTEXT: pre-emergence, 250 g/h, evaluated after 13 days, percentage damage on five point scale
Kindly state ALOMY PRE for each of the entries shown.

>  <COMPOUND>
Cc1cc(-c2ccc(C#N)cn2)cc(C)c1C1C(=O)CC2(CCN(C(=O)NC(=O)C(C)(C)C)CC2)CC1=O [Compound A27]

>  <ASSAY_TARGET>
Alopecurus myosuroides (ALOMY)

>  <MEASURED_ENDPOINT>
ALOMY PRE

>  <EXPERIMENTAL_RESULT>
4 (4=60-79%)

$$$$
>  <COMPOUND>
COCC(=O)N1CCC2(CC1)CC(=O)C(c1c(C)cc(-c3ncc(F)cn3)cc1C)C(=O)C2 [Compound A35]

>  <ASSAY_TARGET>
Alopecurus myosuroides (ALOMY)

>  <MEASURED_ENDPOINT>
ALOMY PRE

>  <EXPERIMENTAL_RESULT>
5 (5=80-100%)

$$$$
>  <COMPOUND>
CON1CCC2(CC1)CC(=O)C(c1c(C)cc(C)cc1C)C(=O)C2 [Compound A4]

>  <ASSAY_TARGET>
Alopecurus myosuroides (ALOMY)

>  <MEASURED_ENDPOINT>
ALOMY PRE

>  <EXPERIMENTAL_RESULT>
5 (5=80-100%)

$$$$

Please go through the list and note ALOMY PRE for each compound.
1. COc1cc(-c2ccc(F)cc2)cc(OC)c1C1C(=O)CC2(CCN(C(C)=O)CC2)CC1=O [Compound A20]
2. Cc1cc(-c2ccc(C#N)cn2)cc(C)c1C1C(=O)CC2(CCN(C(=O)NC(C)(C)C)CC2)CC1=O [Compound A26]
3. Cc1cc(-c2ccc(F)cc2)cc(C)c1C1C(=O)CC2(CCN(C(=O)c3ccccc3)CC2)CC1=O [Compound A54]

1. 5 (5=80-100%)
2. 5 (5=80-100%)
3. 5 (5=80-100%)

Lookup result for COc1cc(-c2ccc(C#N)cn2)cc(OC)c1C1C(=O)CC2(CCN(C(C)=O)CC2)CC1=O [Compound A16] ; measured ALOMY PRE: 1 (1=0-19%)

###

Kindly state LOLPE percentage damage for each of the entries shown.
Test system: LOLPE
PROTOCOL: Post-emergence comparison with comparator C1 at indicated application rates
Format: in vivo, Lolium perenne
TEST_CONTEXT: rate 16 g/ha
Give bare numbers, in %.

Recorded LOLPE percentage damage, per entry:
>  <COMPOUND>
CC(=O)N1CCC2(CC1)CC(=O)C(c1c(C)cc(-c3ncc(F)cn3)cc1C)C(=O)C2

>  <ASSAY_TARGET>
LOLPE

>  <LOLPE percentage damage (%)>
70

$$$$
>  <COMPOUND>
Cc1cc(C)c(C2C(=O)CC3(CCOCC3)CC2=O)c(C)c1 [Compound C1, reference compound]

>  <ASSAY_TARGET>
LOLPE

>  <LOLPE percentage damage (%)>
30

$$$$
>  <COMPOUND>
COc1cc(-c2ccc(F)cc2)cc(OC)c1C1C(=O)CC2(CCN(OC)CC2)CC1=O

>  <ASSAY_TARGET>
LOLPE

>  <LOLPE percentage damage (%)>
90

$$$$

Kindly consider the entry below.
So the reported LOLPE percentage damage for CON1CCC2(CC1)CC(=O)C(c1c(C)cc(C)cc1C)C(=O)C2 , on LOLPE, turned out to be 70

###

Kindly state ALOMY percentage damage for each of the entries shown.
Test system: ALOMY
PROTOCOL: Post-emergence comparison with comparator C1 at indicated application rates
Format: in vivo, Alopecurus myosuroides
TEST_CONTEXT: rate 16 g/ha
Numbers only, in %.

Please go through the list and note ALOMY percentage damage for each molecule.
1. CC(=O)N1CCC2(CC1)CC(=O)C(c1c(C)cc(-c3ncc(F)cn3)cc1C)C(=O)C2 [Compound A13]
2. COc1cc(-c2ccc(F)cc2)cc(OC)c1C1C(=O)CC2(CCN(OC)CC2)CC1=O [Compound A7]
3. CON1CCC2(CC1)CC(=O)C(c1c(C)cc(C)cc1C)C(=O)C2 [Compound A4]
4. Cc1cc(C)c(C2C(=O)CC3(CCOCC3)CC2=O)c(C)c1 [Compound C1, reference compound]

90
80
40
20

###

Tested on: Setaria faberi (SETFA)
PROTOCOL: Glasshouse herbicide test, pre- and post-emergence, percentage damage
Format: in vivo
TEST_CONTEXT: pre-emergence, 250 g/h, evaluated after 13 days, percentage damage on five point scale
Kindly state SETFA PRE for each of the entries shown.

Recorded SETFA PRE, per entry:
>  <SMILES_DATA>
COc1cc(-c2ccc(F)cc2)cc(C)c1C1C(=O)CC2(CCN(C(=O)C(C)(C)C)CC2)CC1=O

>  <EXPERIMENTAL_RESULT>
5 (5=80-100%)

$$$$
>  <SMILES_DATA>
Cc1cc(-c2ccc(C#N)cn2)cc(C)c1C1C(=O)CC2(CCN(C(=O)c3ccccn3)CC2)CC1=O

>  <EXPERIMENTAL_RESULT>
5 (5=80-100%)

$$$$
>  <SMILES_DATA>
COCC(=O)N1CCC2(CC1)CC(=O)C(c1c(C)cc(-c3ccc(C#N)cn3)cc1C)C(=O)C2

>  <EXPERIMENTAL_RESULT>
5 (5=80-100%)

$$$$

Lookup result for COc1cc(-c2ccc(F)cc2)cc(C)c1C1C(=O)CC2(CCN(C(=O)NC(=O)c3ccccn3)CC2)CC1=O ; measured SETFA PRE: 5 (5=80-100%)

Reference for the values: patent US11980188B2
